System: K562 CRISPRi cells
Assay: Constant region variant library pooled growth screen, K562
Format: cell-based, human
Details: sgRNA constant region variants; activity relative to the original, un-modified constant region cr995
From the text: We calculated relative activities for each targeting sequence:constant region pair by normalizing its phenotype to that of the targeting sequence paired with the unmodified constant region, identifying 409 constant region variants that on average conferred intermediate activity (0.1-0.9, FIG. 5B). Ten variants selected for individual evaluation also mediated intermediate levels of mRNA knockdown (FIG. 6B). […]
Assignment: determine reported Mean relative activity for the given molecules.
Write the value as a bare number.

// query Could you tell me which Mean relative activity is on file for cr704 (nucleic acid, listed as DNA, chemistry not fully specified) guide: GTTTAAGAGCTAAGCTGGAAACAGCATAGCAAGTTTAAATAAGGCTAGTCCGTTATCAACTTGAAAAAGCGGCACCGAGTCGGTGCT ?
// result 1.033

// query Could you tell me which Mean relative activity is on file for cr430 (nucleic acid, listed as DNA, chemistry not fully specified) guide: GTTTAAGAGCTAAGCTGGAAACAGCATAGCAAGTTTAAATAAGACTAGTTCGTTATCAAATTGAAAAATTGGCACAGAGTCTGTGCT ?
// result 0.5328
